Here the recorded CC50 is given for each entry.
test system: HT-29; assay: Inhibition of cells growth by colorimetric (SRB) assay, HT-29; settings: Homo sapiens, HT-29, 48 h, read-out: LC50 HT-29, SRB assay, 48 hours exposure
experimental.endpoint: CC50 (µM)

[[record]]
compound = "COc1nccc(-c2c3c(O)ccnc3n3c(N)nccc23)n1 [Compound 105]"
system_under_test = "HT-29"
modifier = "="
meas_value = 32.4

[[record]]
compound = "COc1nccc(-c2c3c(N)ccnc3n3c(N)nccc23)n1 [Compound 88]"
system_under_test = "HT-29"
modifier = "="
meas_value = 18.7

[[record]]
compound = "c1ccc(CNc2nccc(-c3c4cccnc4n4c(NCc5ccccc5)nccc34)n2)cc1 [Compound 28]"
system_under_test = "HT-29"
modifier = "="
meas_value = 109

[[record]]
compound = "C[S+]([O-])c1nccc(-c2c3c(Cl)ccnc3n3c(N)nccc23)n1 (centres unmarked) [Compound 110]"
system_under_test = "HT-29"
modifier = "≥"
meas_value = 27.9

[[record]]
compound = "CSc1nccc2c(C(C)C)c3cccnc3n12 [Compound 61]"
system_under_test = "HT-29"
modifier = "≥"
meas_value = 38.9

